- assay-system: Estrogen receptor (Homo sapiens)
- test-name: OT_ERa_GFPERaERE_0480: Odyssey Thera (OT) 8-hour HeLa Transcription Induction Assay for Estrogen Receptor (AID 2283381)
Active and inactive are the calls of the source. How the source made its calls: active means hit-call score of the fitted dose curve at least 0.9, where 1 is the maximum; inactive means score below 0.9.
Hi there, use one of these labels in your reply, thanks! active, inactive

Test call for this compound, please: "c1nc[nH]n1"
inactive

====

- test-name: ATG_EGR_CIS: Attagene CIS-FACTORIAL HepG2 Assay for human Early Growth Response 1 (EGR1) (AID 2282938)
- condition-description: HepG2 Attagene CIS-FACTORIAL EGR reporter mRNA; actives raise or lower the signal
Activity calls are given as the source filed them. The calls were made as follows: active = hit-call score of the fitted dose curve at least 0.9, where 1 is the maximum; inactive = score below 0.9.
Outcome (select one): Y = active, N = inactive

// below: answered compounds
[[record]]
compound = "CCOc1ccc(C(C)(C)COCc2cccc(Oc3ccccc3)c2)cc1"
label_value = "N"

[[record]]
compound = "CC(C)CBr"
label_value = "N"

[[record]]
compound = "O=C(CBr)OCc1ccccc1"
label_value = "N"

[[record]]
compound = "CCCCc1ccc(O)cc1"
label_value = "N"

[[record]]
compound = "CCCCOCC1CO1 (configuration not stated)"
label_value = "N"


Write down the call the test reported for this compound. Item: "CC1=C(C(=O)Nc2ccccc2)S(=O)(=O)CCO1"
Y

Per the assay record, what outcome was assigned to "O=C(O)C(F)(F)OC(F)(F)C(F)(F)OC(F)(F)C(=O)O" ?
N

====

- test-name: ATG_NRF2_ARE_CIS: Attagene CIS-FACTORIAL HepG2 Assay for human Nuclear Factor Erythroid 2 Related Factor 2 (NFR2) response to Antioxidant Response Elements (ARE) (AID 2282992);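 on AC50: reporter mRNA level measured by RT-PCR and capillary electrophoresis fluorescence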
- condition-description: HepG2 Attagene ARE/NRF2 reporter, transcription factor activity; actives raise or lower the signal
Active and inactive are the calls of the source. Rule for the calls: active = hit-call score of the fitted dose curve at least 0.9, where 1 is the maximum; inactive = score below 0.9.
test-readout: AC50

// solved cases for AC50 follow
[[record]]
compound = "CCOS(=O)(=O)OCC"
test_readout = "AC50"
recorded_measurement = "inactive"

[[record]]
compound = "CCCCN(CCCC)SN(C)C(=O)Oc1cccc2c1OC(C)(C)C2"
test_readout = "AC50"
recorded_measurement = "31.6 µM (active)"

[[record]]
compound = "O=C(O)C(Cl)Cl"
test_readout = "AC50"
recorded_measurement = "inactive"

[[record]]
compound = "Cc1ccc([N+](=O)[O-])cc1C"
test_readout = "AC50"
recorded_measurement = "inactive"

[[record]]
compound = "c1ccc(OP(Oc2ccccc2)Oc2ccccc2)cc1"
test_readout = "AC50"
recorded_measurement = "inactive"

[[record]]
compound = "c1cc2c3c(cccc3c1)CC2"
test_readout = "AC50"
recorded_measurement = "inactive"

[[record]]
compound = "C=CC(=O)OCC(F)(F)C(F)F"
test_readout = "AC50"
recorded_measurement = "50.3 µM (active)"

[[record]]
compound = "O=C(O)CF"
test_readout = "AC50"
recorded_measurement = "inactive"

[[record]]
compound = "COP(=O)(CCC(=O)NCO)OC"
test_readout = "AC50"
recorded_measurement = "inactive"

[[record]]
compound = "N#Cc1ccc(O)cc1"
test_readout = "AC50"
recorded_measurement = "inactive"


Below is a list of compounds. For each, state its recorded AC50.
1. Cc1ccc2c(c1N)C(=O)c1ccccc1C2=O
2. C=C(C)C(=O)OCC1CO1 (stereo not given)
3. O=[N+]([O-])c1ccc(Cl)c(Cl)c1
4. COCCOCCO
5. CC(C)(C)c1ccccc1OP(=O)(Oc1ccccc1)Oc1ccccc1

["42.4 µM (active)", "42.9 µM (active)", "100 µM (active)", "inactive", "19.8 µM (active)"]
